System: NCI-H146 human small cell lung carcinoma cells
procedureDetails: Cellular efficacy in human tumor cell line (MTS viability assay)
Type: cell-based
statedConditions: NCI-H146; 10% human serum, 48 hours; Table 2; read-out: NCI-H146 Cellular Efficacy H146, EC50
Parameter EC50: see the listing below.
property: EC50 (nM)

{"compound": "CN(C)CC[C@H](CSc1ccccc1)Nc1ccc(S(=O)(=O)NC(=O)c2ccc(N3CCN(Cc4ccccc4-c4ccc(Cl)cc4)CC3)cc2)cc1[N+](=O)[O-] [B, reference compound]", "property": "EC50", "measurement": 63}
{"compound": "CN(C)CC[C@H](CSc1ccccc1)Nc1ccc(S(=O)(=O)NC(=O)c2ccc(N3CCN(Cc4ccccc4-c4ccc(Cl)cc4)CC3)cc2)cc1C#N [C, reference compound]", "property": "EC50", "measurement": 1810}
{"compound": "CN(C)CC[C@H](CSc1ccccc1)Nc1ccc(S(=O)(=O)NC(=O)c2ccc(N3CCN(Cc4ccccc4-c4ccc(Cl)cc4)CC3)cc2)cc1C(F)(F)F [A, reference compound]", "property": "EC50", "measurement": 1600}
{"compound": "O=C(NS(=O)(=O)c1ccc(N[C@H](CCN2CCOCC2)CSc2ccccc2)c(S(=O)(=O)C(F)(F)F)c1)c1ccc(N2CCN(Cc3ccccc3-c3ccc(Cl)cc3)CC2)cc1", "property": "EC50", "measurement": 83}
{"compound": "CN(C)CC[C@H](CSc1ccccc1)Nc1ccc(S(=O)(=O)NC(=O)c2ccc(N3CCN(Cc4ccccc4-c4ccc(Cl)cc4)CC3)cc2)cc1S(=O)(=O)C(F)(F)F", "property": "EC50", "measurement": 39}
{"compound": "CN(C)CC[C@H](CSc1ccccc1)Nc1ccc(S(=O)(=O)NC(=O)c2ccc(N3CCN(Cc4ccccc4-c4ccc(Cl)cc4)CC3)cc2)c(F)c1C(F)(F)F [D, reference compound]", "property": "EC50", "measurement": 7330}

====

For reference, Ki measured on Bcl-XL protein (Homo sapiens, UniProt Q07817):
property: Ki

{"molecule": "O=C(NS(=O)(=O)c1ccc(N[C@H](CCN2CCOCC2)CSc2ccccc2)c(S(=O)(=O)C(F)(F)F)c1)c1ccc(N2CCN(CC3=C(c4ccc(Cl)cc4)CCOC3)CC2)cc1 [Example 21]", "measurement": "≤ 1 nM"}
{"molecule": "CN(C)CC[C@H](CSc1ccccc1)Nc1ccc(S(=O)(=O)NC(=O)c2ccc(N3CCN(CC4=C(c5ccc(Cl)cc5)CCCCC4)CC3)cc2)cc1S(=O)(=O)C(F)(F)F [Example 17]", "measurement": "≤ 1 nM"}
{"molecule": "O=C(NS(=O)(=O)c1ccc(N[C@H](CCN2CC3CC2CO3)CSc2ccccc2)c(S(=O)(=O)C(F)(F)F)c1)c1ccc(N2CCN(CC3=C(c4ccc(Cl)cc4)CCCC3)CC2)cc1 (stereo partly drawn) [Example 9]", "measurement": "≤ 1 nM"}

====

procedureDetails: Pharmacokinetic evaluation in rat
Format: in vivo
statedConditions: male, Sprague-Dawley, plasma, 5 mg/kg, oral, Table 2, read-out: Pharmacokinetic peak plasma concentration (rat) Cmax

{"molecule": "CN(C)CC[C@H](CSc1ccccc1)Nc1ccc(S(=O)(=O)NC(=O)c2ccc(N3CCN(Cc4ccccc4-c4ccc(Cl)cc4)CC3)cc2)cc1S(=O)(=O)C(F)(F)F", "unitsLabel": "nM", "Cmax": 72}
{"molecule": "CN(C)CC[C@H](CSc1ccccc1)Nc1ccc(S(=O)(=O)NC(=O)c2ccc(N3CCN(Cc4ccccc4-c4ccc(Cl)cc4)CC3)cc2)cc1C(F)(F)F [A, reference compound]", "unitsLabel": "nM", "Cmax": 371}
{"molecule": "O=C(NS(=O)(=O)c1ccc(N[C@H](CCN2CCOCC2)CSc2ccccc2)c(S(=O)(=O)C(F)(F)F)c1)c1ccc(N2CCN(Cc3ccccc3-c3ccc(Cl)cc3)CC2)cc1", "unitsLabel": "nM", "Cmax": 290}
{"molecule": "CN(C)CC[C@H](CSc1ccccc1)Nc1ccc(S(=O)(=O)NC(=O)c2ccc(N3CCN(Cc4ccccc4-c4ccc(Cl)cc4)CC3)cc2)c(F)c1C(F)(F)F [D, reference compound]", "unitsLabel": "nM", "Cmax": 386}
{"molecule": "CN(C)CC[C@H](CSc1ccccc1)Nc1ccc(S(=O)(=O)NC(=O)c2ccc(N3CCN(Cc4ccccc4-c4ccc(Cl)cc4)CC3)cc2)cc1[N+](=O)[O-] [B, reference compound]", "unitsLabel": "nM", "Cmax": 39}
{"molecule": "CN(C)CC[C@H](CSc1ccccc1)Nc1ccc(S(=O)(=O)NC(=O)c2ccc(N3CCN(Cc4ccccc4-c4ccc(Cl)cc4)CC3)cc2)cc1C#N [C, reference compound]", "unitsLabel": "nM", "Cmax": 315}
